System: LNCaP-tumor-xenografts
Assay: Biodistribution in LNCaP-tumor-bearing SCID mice
Format: in vivo
Details: 1 h p.i., mean ± SD, n = 4
Please go through the items and note down their tumor accumulation.
Unit % IA/g implied. Number only.

Specify measured tumor accumulation for O=C(O)CC[C@H](NC(=O)N[C@@H](CCCCNC(=O)[C@H](Cc1ccc2ccccc2c1)NC(=O)c1ccc(CNC(=O)[C@H](CCC(=O)O)NC(=O)[C@H](CCC(=O)O)NC(=O)c2ccc([18F])nc2)cc1)C(=O)O)C(=O)O [^18F-PSMA-1007] .
7.1

Specify measured tumor accumulation for O=C(O)CCC(NC(=O)NC(CCC(=O)NC(CCCCNC(=O)CCNC(=O)c1ccc([18F])nc1)C(=O)O)C(=O)O)C(=O)O (stereo not drawn) [EuE-k-β-a-^18F-FPyl] .
13.0

Specify measured tumor accumulation for O=C(O)CCC(NC(=O)NC(CCCCNC(=O)c1ccc([18F])nc1)C(=O)O)C(=O)O (stereo not shown) [^18F-DCFPyl, reference compound] .
7.3

Specify measured tumor accumulation for O=C(O)CCC(NC(=O)NC(CCC(=O)NC(CCCCNC(=O)CON=Cc1ccc([18F])cc1)C(=O)O)C(=O)O)C(=O)O (stereo not shown) [EuE-k-^18F-FBOA] .
12.7
